# assayed_system: T1, human IL-11 (AAH12506.1, Pro22-Leu199) (human, UniProt P20809 22-199)
# T1 construct: The range Pro22-Leu199 counts on AAH12506.1; The Octet runs say only 'human IL-11'; also called hIL-11
# T1 chain: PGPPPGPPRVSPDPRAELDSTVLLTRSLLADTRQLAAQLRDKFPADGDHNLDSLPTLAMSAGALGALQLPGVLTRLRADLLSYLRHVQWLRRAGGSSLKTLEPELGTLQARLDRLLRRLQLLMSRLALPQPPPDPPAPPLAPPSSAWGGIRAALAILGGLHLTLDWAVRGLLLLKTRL
# assay_notes: BLI (Octet), antibody captured, human IL-11 in solution

binder	kon / M⁻¹ s⁻¹
hz18A10-VHm14 + hz18A10-VLm19 (antibody, V domains shown, Constant regions not restated for this antibody) VH: EVQLVQSGAEVKKPGASVKVSCKASGYTFTHYQMDWVRQAPGQGLEWMGTIYPGNGDTSYNQKFKGRVTMTRDTSTSTVYMELSSLRSEDTAVYYCARGDLYALDYWGQGTLVTVSS VL: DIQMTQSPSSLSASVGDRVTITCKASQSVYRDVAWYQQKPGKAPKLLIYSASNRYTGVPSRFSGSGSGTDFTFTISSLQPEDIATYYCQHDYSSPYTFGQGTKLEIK	716000
hz18A10-VH + hz18A10-VLm3 (antibody, V domains shown, Constant regions not restated for this antibody) VH: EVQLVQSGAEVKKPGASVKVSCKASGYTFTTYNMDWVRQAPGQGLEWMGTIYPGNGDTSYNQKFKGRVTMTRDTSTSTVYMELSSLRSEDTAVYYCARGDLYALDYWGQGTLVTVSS VL: DIQMTQSPSSLSASVGDRVTITCKASHSVSNDVAWYQQKPGKAPKLLIYSASNRYTGVPSRFSGSGSGTDFTFTISSLQPEDIATYYCQHDYSSPYTFGQGTKLEIK	704000
hz18A10-VHm3 + hz18A10-VLm9 (antibody, V domains shown, Constant regions not restated for this antibody) VH: EVQLVQSGAEVKKPGASVKVSCKASGYTFTTYDMDWVRQAPGQGLEWMGTIYPGNGDTSYNQKFKGRVTMTRDTSTSTVYMELSSLRSEDTAVYYCARGDLYALDYWGQGTLVTVSS VL: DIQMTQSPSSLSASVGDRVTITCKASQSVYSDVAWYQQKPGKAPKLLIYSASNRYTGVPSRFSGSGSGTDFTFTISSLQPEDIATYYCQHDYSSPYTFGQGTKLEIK	1.01e+06
